System: LMR20 cells
PROTOCOL: Proliferation of MDV3100-resistant LMR20 cells (MTT; with R1881 or DHT)
Type: cell-based, human
CONDITION_DETAILS: CSS + DHT, ASO 1.0 μM, 5 days
Each entry below carries its reported Percent inhibition of LMR20 cell proliferation.
ENDPOINT: Percent inhibition of LMR20 cell proliferation (%)

INSERT INTO assay_data (sequence_string, u, observed_result) VALUES
  ('TTGATTTAATGGTTGC [ISIS 560131] (MOE and (S)-cEt gapmer chemistry, further chemistry not given here) [targets intron 1]', '%', 57),
  ('GTTGATTTAATGGTTG (all phosphorothioate, sugars by position not given here; further chemistry not fully specified) [ISIS 549458]', '%', 60),
  ('ACCAAGTTTCTTCAGC (LNA gapmer, phosphorothioate backbone, further chemistry not given here) [ISIS 554221, 3-10-3 LNA gapmer, phosphorothioate backbone, targeted to exon 4 of AR; benchmark, reference compound]', '%', 10),
  ('TGATTTAATGGTTGCA [ISIS 569236] (cEt/MOE gapmer chemistry, further chemistry not given here) [targets intron 1]', '%', 32);
